Entry source: ChEMBL document CHEMBL3425496

- assay_protocol: Apparent permeability from apical to basolateral side in human Caco2 cells by LC-MS analysis
- Assay type: ADME, cell-based
- experimental_conditions: Caco-2
Square brackets hold non-standard residues; d marks the D form. Peptide text beside a SMILES is read from it. NMeL = CN[C@@H](CC(C)C)C(=O)O; Sar = CNCC(=O)O
experimental_endpoint: Papp A→B (×10⁻⁶ cm/s)

Previously resolved entries follow.
Query CC(C)C[C@@H]1NC(=O)[C@H](C(C)C)NC(=O)[C@H](Cc2c[nH]c3ccccc23)NC(=O)[C@H](Cc2ccccc2)NC(=O)[C@H](Cc2ccccc2)NC(=O)[C@@H]2CCCN2C1=O (cyclo(FFWVLP)) yields Papp A→B of 0.24

Query CC(C)C[C@@H]1NC(=O)[C@H](Cc2ccccc2)NC(=O)[C@@H](CC(C)C)N(C)C(=O)[C@H](CC(C)C)N(C)C(=O)[C@H](Cc2ccc(O)cc2)NC(=O)[C@@H]2CCCN2C1=O yields Papp A→B of 12

Query CC(C)C[C@@H]1NC(=O)[C@H](Cc2ccccc2)NC(=O)CN(C)C(=O)[C@H](CC(C)C)N(C)C(=O)[C@H](Cc2ccc(O)cc2)NC(=O)[C@@H]2CCCN2C1=O (cyclo(FLPY[NMeL][Sar])) yields Papp A→B of 0.1

a = CC(C)C[C@@H]1NC(=O)[C@H](Cc2ccc(O)cc2)NC(=O)[C@@H]2CCCN2C(=O)[C@H]2CCCN2C(=O)[C@@H](CC(C)C)NC(=O)[C@H](CC(C)C)NC1=O
b = CC(C)C[C@@H]1NC(=O)CNC(=O)[C@H](Cc2ccccc2)NC(=O)[C@H](CC(N)=O)NC(=O)[C@H](Cc2ccc(O)cc2)NC(=O)[C@H](C)NC1=O (cyclo(AYNFGL))
When the recorded Papp A→B values are compared, which is smaller: that of a or that of b ? Pick one; state its label.
b
(b: 0.02 ×10⁻⁶ cm/s, a: 0.1 ×10⁻⁶ cm/s)
